Tested on: SF-539 CNS
experiment description: NCI tumour cell line growth inhibition, 48 h; in the data active = GI50 below about 0.43 µM; inactive = the rest
Labels: 1 (yes) (active), 0 (no) (inactive)

{"columns": ["chemical structure", "target under test", "category label"],
 "data": [
  ["COc1cc(-c2nccc3[nH]c(-c4ccc5cc[nH]c5c4)nc23)cc(OC)c1OC", "SF-539 CNS", "1 (yes)"],
  ["OCC1CC[N-]CC1.OCC1CC[N-]CC1.[Cl][Pt+2]([Cl])([Cl])[Cl]", "SF-539 CNS", "0 (no)"],
  ["Cc1cccc(Cn2cc(CO)c3cnccc32)c1", "SF-539 CNS", "0 (no)"]
]}

###

Listing: TGI of selected compounds
Test system: EKVX NSCLC
experiment description: NCI tumour cell line growth inhibition, 48 h
Where a SMILES comes first, the peptide text is derived from it. Bridges are numbered along the chain shown (N, C = ends). [ ]: non-standard residue; d: D form. aThr = C[C@H](O)[C@H](N)C(=O)O
reported endpoint: TGI

{"columns": ["compound", "reported endpoint", "assay value"],
 "data": [
  ["COC(=O)[C@H](Cc1ccccc1)NC(=O)c1ccc(CNC(=O)/C=C/c2csc(-c3ccccc3)n2)cc1", "TGI", "> 88.5 µM"],
  ["CCCC(=O)CC(C)C(=O)C(=O)NC12CC3CC(CC(C3)C1)C2 (configuration not stated)", "TGI", "> 100 µM"],
  ["CCO/C=C1\\SC(=S)N(c2ccc(OCC)cc2)C1=O", "TGI", "> 100 µM"],
  ["COc1ccc(-c2c(C3=NCCCN3)nnn2-c2ccccc2)cc1", "TGI", "> 100 µM"],
  ["N#Cc1ccccc1OCCOc1ccccc1C#N", "TGI", "> 100 µM"],
  ["CC(C)C[C@@H]1NC(=O)[C@@H]2CCCN2C(=O)[C@@H]2CCCN2C(=O)[C@H](CC(C)C)NC(=O)[C@H](CO)NC(=O)[C@H](CCCCN)NC(=O)[C@H]([C@H](C)O)NC(=O)[C@@H]2CSSC[C@@H](NC1=O)C(=O)N[C@@H](Cc1ccccc1)C(=O)N1CCC[C@H]1C(=O)N[C@@H](CC(=O)O)C(=O)NCC(=O)N[C@@H](CCCN=C(N)N)C(=O)N2 (cyclo(C[aThr]KSLPPL[dC]FPDGR); disulfide 1-9)", "TGI", "> 50 µM"],
  ["COc1ccc2ccccc2c1C1=NC(C)(C)CO1", "TGI", "> 100 µM"],
  ["CCN1CCC(O)(c2ccc([N+](=O)[O-])cc2)C(C(=O)c2ccc([N+](=O)[O-])cc2)C1 (configuration not stated)", "TGI", "37.6 µM"],
  ["COc1ccccc1Oc1nccc(-c2c(-c3ccc(F)cc3)ncn2C2CCNCC2)n1", "TGI", "> 25 µM"],
  ["CCSCC1CC(O)(c2ccccc2)C(c2ccccc2)C(c2ccc(F)cc2)O1 (configuration not stated)", "TGI", "6.13 µM"],
  ["CC(C)Cc1ccc(C(C)/C=C2\\CCC(CN(C)C)C2=O)cc1 (configuration not stated)", "TGI", "40.2 µM"],
  ["COCCOC1=C(Cl)C(=O)c2ccccc2C1=O", "TGI", "15.8 µM"],
  ["CCCCCCCCCCCCCCNC(=O)Nc1ccc(Cl)c(Cl)c1", "TGI", "6.15 µM"],
  ["O=C(Nc1ccc(OC(F)(F)Cl)cc1)c1cnc(N2CC[C@@H](O)C2)c(-c2ccn[nH]2)c1", "TGI", "28.7 µM"],
  ["Oc1ccc(C(=C(Br)c2ccccc2)c2ccc(O)cc2)cc1", "TGI", "26.2 µM"],
  ["Cc1nc2sc3cccc(Cl)c3n2c(=O)c1N=Nc1ccc(Cl)cc1", "TGI", "> 100 µM"],
  ["COC(=O)C(C(=O)C(=O)Nc1c(Cl)cc([N+](=O)[O-])cc1Cl)c1csc(-n2nc(C3=CCCCC3)cc2-c2ccccc2)n1 (configuration not stated)", "TGI", "94.7 µM"],
  ["O=C(c1ccc(Cl)cc1)N(C(=O)N1CCCCC1)c1ccccc1", "TGI", "> 100 µM"],
  ["C[C@@H]1CC[C@]2(C)C3(C)CC[C@]2(OC3=O)[C@@]12CC(c1ccoc1)OC2=O (some centres not stated)", "TGI", "> 100 µM"],
  ["COc1ccc2nc(NC(=O)C(=O)CC(=O)c3ccc([N+](=O)[O-])cc3)sc2c1", "TGI", "> 100 µM"],
  ["Cc1ccc(NC(=O)c2cc(S(=O)(=O)Nc3nnc(-c4ccccc4)c(-c4ccccc4)n3)c(SCc3ccccc3)cc2Cl)cc1", "TGI", "37.6 µM"],
  ["CCOC(=O)c1ccc(N=Nc2ccc(N(CCC#N)CCC#N)cc2C)cc1", "TGI", "> 100 µM"],
  ["COC1(OC)c2occc2C(=N)c2ccc(=O)oc21", "TGI", "> 100 µM"],
  ["C=C(CN1CCc2[nH]c3ccc(F)cc3c2C1)c1ccc(C(=O)Nc2ccccc2N)cc1", "TGI", "19.7 µM"],
  ["CCOC(=O)C1(C/C=C\\CBr)CCCC1=O (configuration not stated)", "TGI", "> 100 µM"],
  ["O=C(CSCC(=O)N/N=C/c1cccc(O)c1)N/N=C/c1cccc(O)c1", "TGI", "> 100 µM"],
  ["CC1NOC(=O)C1N=Nc1ccc(Cl)cc1Cl (configuration not stated)", "TGI", "73.4 µM"],
  ["O=C1C2C3C=CC(C2C(=O)N1CO)C1C2C(=O)N(CO)C(=O)C2C31 (configuration not stated)", "TGI", "> 100 µM"],
  ["CC(=O)c1ccc(N=NN2CCCC2)cc1", "TGI", "> 100 µM"],
  ["COC(CN(C)C(=S)Nc1cccc2ccccc12)OC", "TGI", "> 10 µM"],
  ["Cc1ccc(OCC2OC(n3cnc4c(Cl)nc(Nc5cc(Cl)cc(Cl)c5)nc43)CC2Oc2ccc(C)cc2)cc1 (configuration not stated)", "TGI", "> 100 µM"],
  ["O=c1c(-c2ccccc2)nnc2n(Cc3ccccc3)c3ccccc3n12", "TGI", "> 100 µM"],
  ["CC(=O)[CH-]C(=O)c1ccccc1.[C-]#[O+].[C-]#[O+].[Ir]", "TGI", "> 100 µM"],
  ["Nc1nccc(-c2c(-c3ccc(F)cc3)nn3cc(C(F)(F)F)ccc23)n1", "TGI", "> 25 µM"],
  ["CC(=O)NC1C(OCC(=O)NCCNc2ccc([N+](=O)[O-])c3[nH]c4ccccc4c(=O)c23)C(O)C(CO)OC1(C)OCc1ccccc1 (configuration not stated)", "TGI", "> 100 µM"],
  ["O=C1CC(O)c2cscc21 (configuration not stated)", "TGI", "> 100 µM"],
  ["NCCOc1cccc(C2(N3CCCCC3)CCCCC2)c1", "TGI", "62.6 µM"]
]}

###

Reported GI50 values are given for each entry in this list.
Test system: HCT-15 colon
experiment description: NCI tumour cell line growth inhibition, 48 h
Where a SMILES comes first, the peptide text is derived from it. Bridges are numbered along the chain shown (N, C = ends). [ ]: non-standard residue; d: D form. aThr = C[C@H](O)[C@H](N)C(=O)O

{"columns": ["compound", "GI50"],
 "data": [
  ["[O]=[V]([OH])([OH])[OH]", "> 100 µM"],
  ["CC(=O)Oc1c(C(=O)[O-])cc(C(C)C)cc1C(C)C.CC(=O)Oc1c(C(=O)[O-])cc(C(C)C)cc1C(C)C.CC(=O)Oc1c(C(=O)[O-])cc(C(C)C)cc1C(C)C.CC(=O)Oc1c(C(=O)[O-])cc(C(C)C)cc1C(C)C.[Cu+2].[Cu+2]", "27.5 µM"],
  ["Cc1cc(Cl)nc(N(CCNc2ccnc3cc(Cl)ccc23)Cc2ccco2)n1", "1.61 µM"],
  ["CN(C)c1ccc(-c2cc(-c3ccc(Nc4nc(Nc5ccc(Cl)cc5)nc(Nc5ccc(Cl)cc5)n4)cc3)nc(N)c2C#N)cc1", "3.7 µM"],
  ["CC(=O)[CH-]C(=O)c1ccccc1.[C-]#[O+].[C-]#[O+].[Ir]", "> 100 µM"],
  ["CNCc1ccc(-c2cc(-c3nc(-c4ccc(S(=O)(=O)C(C)C)cc4)cnc3N)on2)cc1", "0.519 µM"],
  ["COc1ccc(-c2[nH]c3ccc(OC)cc3c2C=C(C#N)C#N)cc1", "0.766 µM"],
  ["CC(C)C[C@@H]1NC(=O)[C@@H]2CCCN2C(=O)[C@@H]2CCCN2C(=O)[C@H](CC(C)C)NC(=O)[C@H](CO)NC(=O)[C@H](CCCCN)NC(=O)[C@H]([C@H](C)O)NC(=O)[C@@H]2CSSC[C@@H](NC1=O)C(=O)N[C@@H](Cc1ccccc1)C(=O)N1CCC[C@H]1C(=O)N[C@@H](CC(=O)O)C(=O)NCC(=O)N[C@@H](CCCN=C(N)N)C(=O)N2 (cyclo(C[aThr]KSLPPL[dC]FPDGR); disulfide 1-9)", "> 50 µM"],
  ["O=C(O)CN(CCN(CC(=O)O)CC(=O)O)CC(=O)O.[Mn+2]", "> 100 µM"],
  ["CSc1nc2nc(-c3ccccc3)c(C)c-2c2n1C(C)C(=O)N2 (stereo not drawn)", "51.2 µM"],
  ["OCC1CC[N-]CC1.OCC1CC[N-]CC1.[Cl][Pt+2]([Cl])([Cl])[Cl]", "27.8 µM"],
  ["COc1cc([C@@H]2c3cc4c(cc3[C@@H](Nc3ccc(NC(=O)c5cc([N+](=O)[O-])cn5C)cc3)[C@H]3COC(=O)[C@H]23)OCO4)cc(OC)c1O", "0.192 µM"],
  ["COc1ccc(-c2cc(/C=C/C(=O)c3ccc(N)cc3)[nH]n2)cc1OC", "1.7 µM"],
  ["CCCCCCCCCCCC[C@@H](O)[C@H]1CC[C@H]([C@H](O)CC[C@H](O)[C@@H]2CC[C@@H](CCCCCCCC3=C[C@H](C)OC3=O)O2)O1", "5.07 µM"],
  ["C#Cc1ccc(-n2c(/C=C/c3ccc(O)cc3)nc3ncccc3c2=O)cc1", "4.65 µM"],
  ["C=CCN(CC=C)C(=O)c1cc(C)nc2c1c(=O)n(-c1ccccc1)c(=O)n2CCCN1CCN(c2ccccc2OC)CC1", "> 50 µM"],
  ["Cc1cccc(Cn2cc(CO)c3cnccc32)c1", "> 100 µM"],
  ["Fc1ccc(NC(c2ccc(F)cc2)C2CCN(CCCCc3ccccc3)CC2)cc1 (stereo not drawn)", "1.45 µM"],
  ["CCc1ccc(Nc2cc(C)c3ccc(O)cc3n2)cc1", "2.95 µM"],
  ["O=C1c2cc3c(cc2-c2c1c1ccc(Cl)cc1c(=O)n2C[C@H](O)CO)OCO3", "0.11 µM"],
  ["O=C(c1cccs1)c1c(C(F)(F)F)n([O-])c2cc(Cl)c(Cl)cc2[n+]1=O", "0.286 µM"],
  ["COc1ccc(C(O)c2cc3c(N)c(C(=O)Nc4cccc5ccccc45)sc3nc2C)cc1 (stereo not drawn)", "0.326 µM"],
  ["O=C(Nc1ccc(OC(F)(F)Cl)cc1)c1cnc(N2CC[C@@H](O)C2)c(-c2ccn[nH]2)c1", "7.61 µM"]
]}

// data source = PubChem BioAssay (NCI)
